Measurement record for TbDHFR (Trypanosoma brucei brucei); quantity recorded: Ki.
measure: Ki (µM)

input_smiles=N=C(N)Nc1nc2cc(Cl)c(Cl)cc2[nH]1 measure=Ki endpoint_unit=µM result=0.66
input_smiles=Cc1cc2nc(NC(=N)N)[nH]c2cc1C measure=Ki endpoint_unit=µM result=0.009
input_smiles=N=C(N)Nc1nc2cc(Cl)cc(Cl)c2[nH]1 measure=Ki endpoint_unit=µM result=0.113
input_smiles=N=C(N)Nc1nc2ccccc2[nH]1 measure=Ki endpoint_unit=µM result=0.029

----------
Notes on Ki obtained with UniProtKB P04818.
Sequence (P04818 whole entry): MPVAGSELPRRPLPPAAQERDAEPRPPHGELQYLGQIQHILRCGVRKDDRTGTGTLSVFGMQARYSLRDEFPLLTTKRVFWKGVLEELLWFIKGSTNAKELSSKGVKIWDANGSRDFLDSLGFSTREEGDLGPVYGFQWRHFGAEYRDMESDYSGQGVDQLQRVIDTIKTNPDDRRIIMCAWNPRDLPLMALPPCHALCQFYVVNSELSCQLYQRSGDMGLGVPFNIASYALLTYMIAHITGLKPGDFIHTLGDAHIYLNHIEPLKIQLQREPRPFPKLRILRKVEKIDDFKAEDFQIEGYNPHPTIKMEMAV
measure: Ki

compound=N=C(N)Nc1nc2cc(Cl)c(Cl)cc2[nH]1 result="> 500 µM"
compound="CCc1nc(N)nc(N)c1-c1ccc(Cl)cc1 [Pyr, pyrimethamine, reference compound]" result="11.8 µM"
compound=N=C(N)Nc1nc2cc(Cl)cc(Cl)c2[nH]1 result="> 500 µM"
compound=N=C(N)Nc1nc2ccccc2[nH]1 result="> 500 µM"
compound=Cc1cc2nc(NC(=N)N)[nH]c2cc1C result="> 500 µM"
